B1: glmS ribozyme (parent)
chain: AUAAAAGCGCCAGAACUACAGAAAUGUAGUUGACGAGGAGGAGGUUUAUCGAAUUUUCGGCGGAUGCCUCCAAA

Variants of: B1
Experiment: self-cleavage kobs at 40 uM GlcN6P; higher = faster cleavage; RNA array
Conditions: with glucosamine-6-phosphate
Fewer inactive variants are shown than the library holds.
Attribute: self-cleavage kobs at 40 uM GlcN6P
Reported endpoint: self-cleavage kobs at 40 uM GlcN6P

- Seq text: "AUAAAAGCGCCCGAACUACAGAAAUGUAGUUGACGAGGAGGAGGUUUAUCGAAUUUUCGGCGGAUUCCUCCAAA"
  Result: "5.83e-05 s⁻¹"
- Seq text: "AUAAAAGCGCCAGAACUACAGAAAUGUAGUUGACGAGGGGGAGGAUUAUCGAAUUUUCGGCGGAUGCCUCCAAA"
  Result: "0.00238 s⁻¹"
- Seq text: "AUAAAAGAGCCAGAACUACAGAAAUGUAGUUGACGAGGAGGGGGUUUAUCGAAUUUUCGGCGGAUGCUUCCAAA"
  Result: "< 1e-05 s⁻¹"
- Seq text: "AUAAAAGCCCCAGAACUACAGAAAUGUAGUUGACGAGGAGGAGGUUUAUCGACUUUUCGGCGGAUGCCUCCAAA"
  Result: "< 1e-05 s⁻¹"
- Seq text: "AUAAAAGCGCCAGAACUACAGAAAUGUAGUUGUCGAGGAGGAGUUUUAUCGUAUUUUCGGCGGAUGCCUCCAAA"
  Result: "< 1e-05 s⁻¹"
- Seq text: "AUAAAAGCGCCAGAAAUACAGAAAUGUAGUUGACGCGGAGGAGGUUUAUCAAUUUUUCGGCGGAUGCCGCCAAA"
  Result: "6.48e-05 s⁻¹"
- Seq text: "AUAAAAGCGCCAGAACUACAGAAAUGUAGUUGAAGAGGAGGAGGCUUAUCGAAUUUUCGGCGGAUGCCUCCAAA"
  Result: "< 1e-05 s⁻¹"
- Seq text: "AUAAAAGCGCCAGAACUACAGAAAUGUAGUUUACGAGGAGGAGGUUUAUCGCAUUUUCGGCGGAUGCCUCCAAA"
  Result: "< 1e-05 s⁻¹"
- Seq text: "AUAAAAGCGCCAGAACUACAGAAAUGUAGCUGACGAGGAGGAGGUUUAUCGAAUAUGCGGCGGAUGCCUCCAAA"
  Result: "< 1e-05 s⁻¹"
- Seq text: "AUAAAAGCUCAAGAACUACAGAAAUGUAGUUGACGAGGAGGAGGUUUAUCGAAUUUUCAGCGGUUGCCUCCAAA"
  Result: "< 1e-05 s⁻¹"
- Seq text: "AUAAAAGGGCCAGAACUACAGAAAUGUAGUUGACGAGGAGGAGGUUUAUCGAAUUUUCGGCGGAUUCCUCCAAA"
  Result: "< 1e-05 s⁻¹"
- Seq text: "AUAAAAGCGCCAGAACUACAGAAAUGUAGUUGAUGAGUAGGAGGUUUAUCGAAUUUUCGGCGGAUGCCUCCAAA"
  Result: "< 1e-05 s⁻¹"
- Seq text: "AUAAAGGCGCCAGAACUACAGAAAUGUAGUUGACGAGGAGGACGUUUAUCGAAUUUUCGGCGGAUGCGUCCAAA"
  Result: "3.71e-05 s⁻¹"
- Seq text: "AUAAAAGCGCCAGAACUACAGAAAUGUAGUUGACGAGGAGGAGGAUUAUCGAAUCUUCGGCGGAUGCCUCCAAA"
  Result: "0.000654 s⁻¹"
- Seq text: "AUAAAAGCGCCAGAACUACAGAAAUGUAGUUGCCGAGGAGGAGGUUUAUCGAAUUUUAGGCGGAUGCCUCCAAA"
  Result: "< 1e-05 s⁻¹"
- Seq text: "AUAAAAGCGCCAGAACUACAGAAAUGUAGUUGACUCGGAGGAGGUUUAUCGAAUUUUCGGCGGAUGCCUCCAAA"
  Result: "< 1e-05 s⁻¹"
- Seq text: "AUAAAAGCGCCAGAACUACAGAAAUGUAGUUGACGAGGACGAGGUUUCUCGAAUUUUCGGCGGAUGCCUCCAAA"
  Result: "< 1e-05 s⁻¹"
- Seq text: "AUAAAAGCGCCACAACUACAGAAAUGUAGUCGACGAGGAGGAGGUUUAUCGAAUUUUCGGCGGAUGCCUCCAAA"
  Result: "3.14e-05 s⁻¹"
- Seq text: "AUAAAAGCGCCAGAACUACAGAAAUGUAGUUGACUAGGGGGAGGUUUAUCGAAUUUUCGGCGGAUGCCUCCAAA"
  Result: "< 1e-05 s⁻¹"
- Seq text: "AUAAAAGCGCCAGAACUACAGAAAUGUAGUUGACGAGGAGGAGGUUUAUCGACUUUUCGACGGAUGCCUCCAAA"
  Result: "< 1e-05 s⁻¹"
- Seq text: "AUAAAAGCGCCAGAACUACAGAAAUGUAGUUGACGAGGCGGAGGAUUAUCGAAUUUUCGGCGGAUGCCUCCAAA"
  Result: "0.000226 s⁻¹"
- Seq text: "AUAAAGGCGCCAGAACUACAGAAAUGUAGUUGACGAGGAGGAGGUUUAUCGAAUUUACGGCGGAUGCCUCCAAA"
  Result: "< 1e-05 s⁻¹"
- Seq text: "AUAAAAGCUCCAGAAGUACAGAAAUGUAGUUGACGAGGAGGAGGUUUAUCGAAUUUUCGGCGGAUGCCUCCAAA"
  Result: "< 1e-05 s⁻¹"
- Seq text: "AUAAAAGCGCCAGAACUACAGAAAUGUAGUUGAAGAGGGGGAGGUUUAUCGAAUUUUCGGCGGCUGCCUCCAAA"
  Result: "< 1e-05 s⁻¹"
- Seq text: "AUAAAAGCGCCAGAACUACAGAAAUGUAGUUGACGAGGGGGAGGUUUAUCGACUUUUCGGCGGAUGCCUCCAAA"
  Result: "0.000254 s⁻¹"
- Seq text: "AUAAAAGCGCUAGAACUACAGAAAUGUAGUUGACGAGGAGGAGGUUUAUCGAAUUUUCGGCGGUUGCCUCCAAA"
  Result: "< 1e-05 s⁻¹"
- Seq text: "AUAAAAGCGCCAGAACUACAGAAAUGUAGUUGACGAGGAGGAGGUUUAUCGAAUUUUCGGCGGGGGCCUCCAAA"
  Result: "5.76e-05 s⁻¹"
- Seq text: "AUAAAAGCGCCAGAACUACAGAAAUGUAGUUCACGAGGAGGAGGUUUAUCGCAUUUUCGGCGAAUGCCUCCAAA"
  Result: "< 1e-05 s⁻¹"
- Seq text: "AUAAAAUCGCCAGAACUACAGAAAUGUAGUUGACGACGCGGAGGUUUAUCGAAUUUUCGGCCGAUGCCUCCAAA"
  Result: "< 1e-05 s⁻¹"
- Seq text: "AUAAAAGCGCCAGAACUACAGAAAUGUAGUCGACGAGGAGGAGGAUUAUCGAAUUUUCGGCGGAUGCCUCCAAA"
  Result: "0.000212 s⁻¹"
- Seq text: "AUAAAAGCGCCAGAACUACAGAAAUGUAGUUGACGAGGCGGAGGUUUAUGGCAUUUUCGGCGGAUGCCUCCAAA"
  Result: "< 1e-05 s⁻¹"
- Seq text: "AUAAAAGCGCCACAACUACAGAAAUGUAGUUGACGAGGAGGAGGUUUAUCGAAUUUUCGACGGAUGCCUCCAAA"
  Result: "< 1e-05 s⁻¹"
- Seq text: "AUAAAAGCGCCCGAACUACAGAAAUGUAGUUGACGAGGAGGAGGUCUAUGGAAUUUUCGGCGUAUGGUUCCAAA"
  Result: "0.000202 s⁻¹"
- Seq text: "AUAAAAGCGCCAGAACUACAGAAAUGUAGUUGACGAGGAGGCUGUUUGUCGAAUUUUCGGCCGAUGACUGCAAA"
  Result: "< 1e-05 s⁻¹"
- Seq text: "AUAAAAGCACCAGAACUACAGAAAUGUAGUUGACGAGGAGGAGGUUUAUCGUAUUUUCGGCGGAUGCCUCCAAA"
  Result: "< 1e-05 s⁻¹"
- Seq text: "AUAAAAGCGCCAGAACUACAGAAAUGUAGUUGCCGAGGAGGAGGUUUAUCGAAUUUUAGGCAGAUGCCUCCAAA"
  Result: "< 1e-05 s⁻¹"
- Seq text: "AUAAAAGCGCCAGAACUACAGAAAUGUAGUUGGCGAUGAGGAGGUGUAUCGGAUUUUCGGCAGAUGCCUCCAAA"
  Result: "< 1e-05 s⁻¹"
- Seq text: "AUAAAAUCGCCAGAACUACAGAAAUGUAGUUGACGAGAAGGAGGUUUAUCGAAUUUUCGGCGGAUGCCUCCAAA"
  Result: "< 1e-05 s⁻¹"
- Seq text: "AUAAAAGCGCCAGAACUACAGAAAUGUAGUUGACGAGGAGGAGGUUUAUCGAAUGUUCGGCGGAUGGCUCCAAA"
  Result: "0.000127 s⁻¹"
- Seq text: "AUAAAAGCGCCAGAAUUACAGAAAUGUAGUUGACGAGGAGGAGGUUUAUCGAAUUUUCGGCGGAUGCCUCCAAA"
  Result: "0.000969 s⁻¹"
- Seq text: "AUAAAAGCGGCAGAACUACAGAAAUGUAGUUGACGAGGAGGAGGUUUAUCGACUUUUCGGCGGGUGCCUCCAAA"
  Result: "< 1e-05 s⁻¹"
- Seq text: "AUAAAAGAGCCAGAACUACAGAAAUGUAGUUGACGAGGAGUAGGUUUAUGGAAUUUUCGGCGGAUGCCUCCAAA"
  Result: "< 1e-05 s⁻¹"
- Seq text: "AUAAAAGCGCCAGAACUACAGAAAUGUAGUUGAUGAGGAGGAGGUUUAUCGAAUUUUCUGCGGAUGCCUCCAAA"
  Result: "< 1e-05 s⁻¹"
- Seq text: "AUAAAAGCGCCAGAACUACAGAAAUGUAGUUGACGAGGAGGGGGUUUAUCGAUUUUUCGGCGGAUGCCUCCAAA"
  Result: "0.000764 s⁻¹"
- Seq text: "AUAAAAGCGCCAAAACUACAGAAAUGUAGUUGACGAGGAGGAGGUUUAUGGAAUUUUCGGCGGAUUCCACCAAA"
  Result: "8.64e-05 s⁻¹"
- Seq text: "AUAAAAGCGCCAGGAGUACAGAAAUGUAGUUGACGAGUAGGAGGUUUAUGGAAUUUUCGGCGGAUGACUCCAAA"
  Result: "0.000102 s⁻¹"
